Tested on: Klebsiella pneumoniae
Test: Antibacterial activity against gram-negative Klebsiella pneumoniae KP457 harboring blacTX-M-15 extended spectrum beta-lactamase gene by CLSI method
Type: functional
MIC by entry:
Answer format: numeric, µg/mL implied, no suffix.

{"columns": ["Compound", "MIC [µg/mL]"],
 "data": [
  ["CN(C)[C@@H]1C(O)=C(C(N)=O)C(=O)[C@@]2(O)C(O)=C3C(=O)c4c(O)cc([C@@H]5CCCN5)cc4C[C@H]3C[C@@H]12", 0.5],
  ["CN(C)c1cc(NC(=O)CNC(C)(C)C)c(O)c2c1C[C@H]1C[C@H]3[C@H](N(C)C)C(O)=C(C(N)=O)C(=O)[C@@]3(O)C(O)=C1C2=O", 1],
  ["CN(C)[C@@H]1C(O)=C(C(N)=O)C(=O)[C@@]2(O)C(O)=C3C(=O)c4c(O)cc([C@@H]5CCCN5C)c(C(F)(F)F)c4C[C@H]3C[C@@H]12", 2],
  ["CN(C)[C@@H]1C(O)=C(C(N)=O)C(=O)[C@@]2(O)C(O)=C3C(=O)c4c(O)cc(C5CCCN5)c(OC(F)(F)F)c4C[C@H]3C[C@@H]12 (stereo partly specified)", 0.25]
]}

Moving on to the next compound.
Kindly state the measured MIC obtained for CC1CCNC1c1cc(O)c2c(c1C(F)(F)F)C[C@H]1C[C@H]3[C@H](N(C)C)C(O)=C(C(N)=O)C(=O)[C@@]3(O)C(O)=C1C2=O (stereo partly specified) with Klebsiella pneumoniae.
1

* * *

Tested on: Staphylococcus aureus
Test: Antibacterial activity against gram-positive Staphylococcus aureus SA161 harboring tet(M) by CLSI method
Format: functional
log10 of MIC by entry:
Quick note: numbers are log10 of MIC, with µg/mL as the unit.

{"columns": ["Compound", "Measured parameter", "Readout number"],
 "data": [
  ["CN(C)[C@@H]1C(O)=C(C(N)=O)C(=O)[C@@]2(O)C(O)=C3C(=O)c4c(O)cc([C@H]5CCCN5)c(C(F)(F)F)c4C[C@H]3C[C@@H]12", "log10 of MIC", 1.20],
  ["CCCN1CCC[C@H]1c1cc(O)c2c(c1C(F)(F)F)C[C@H]1C[C@H]3[C@H](N(C)C)C(O)=C(C(N)=O)C(=O)[C@@]3(O)C(O)=C1C2=O", "log10 of MIC", 0.00],
  ["CC1CCN(C)C1c1cc(O)c2c(c1C(F)(F)F)C[C@H]1C[C@H]3[C@H](N(C)C)C(O)=C(C(N)=O)C(=O)[C@@]3(O)C(O)=C1C2=O (some centres undefined)", "log10 of MIC", 0.60],
  ["CN(C)[C@@H]1C(O)=C(C(N)=O)C(=O)[C@@]2(O)C(O)=C3C(=O)c4c(O)cc(C5CCCN5)c(OC(F)(F)F)c4C[C@H]3C[C@@H]12 (some centres undefined)", "log10 of MIC", 0.30],
  ["CCN1CCC[C@H]1c1cc(O)c2c(c1C(F)(F)F)C[C@H]1C[C@H]3[C@H](N(C)C)C(O)=C(C(N)=O)C(=O)[C@@]3(O)C(O)=C1C2=O", "log10 of MIC", 0.00],
  ["CN(C)[C@@H]1C(O)=C(C(N)=O)C(=O)[C@@]2(O)C(O)=C3C(=O)c4c(O)cc([C@@H]5CCCN5C)c(C(F)(F)F)c4C[C@H]3C[C@@H]12", "log10 of MIC", 0.30]
]}

Item CC1CCNC1c1cc(O)c2c(c1C(F)(F)F)C[C@H]1C[C@H]3[C@H](N(C)C)C(O)=C(C(N)=O)C(=O)[C@@]3(O)C(O)=C1C2=O (some centres undefined) has what recorded log10 of MIC?
0.90

Item `CN(C)[C@@H]1C(O)=C(C(N)=O)C(=O)[C@@]2(O)C(O)=C3C(=O)c4c(O)cc([C@@H]5CCCN5CC5CC5)c(C(F)(F)F)c4C[C@H]3C[C@@H]12` has what recorded log10 of MIC?
0.00

Item CN1CCCCC1c1cc(O)c2c(c1Cl)C[C@H]1C[C@H]3[C@H](N(C)C)C(O)=C(C(N)=O)C(=O)[C@@]3(O)C(O)=C1C2=O (some centres undefined) has what recorded log10 of MIC?
0.60

Item CN1CCCCCC1c1cc(O)c2c(c1Cl)C[C@H]1C[C@H]3[C@H](N(C)C)C(O)=C(C(N)=O)C(=O)[C@@]3(O)C(O)=C1C2=O (some centres undefined) has what recorded log10 of MIC?
0.30

Item CC1CCC(c2cc(O)c3c(c2C(F)(F)F)C[C@H]2C[C@H]4[C@H](N(C)C)C(O)=C(C(N)=O)C(=O)[C@@]4(O)C(O)=C2C3=O)N1 (some centres undefined) has what recorded log10 of MIC?
0.00

Item CN1CCCC1c1cc(O)c2c(c1Cl)C[C@H]1C[C@H]3[C@H](N(C)C)C(O)=C(C(N)=O)C(=O)[C@@]3(O)C(O)=C1C2=O (some centres undefined) has what recorded log10 of MIC?
0.00

Item `CC(C)CN1CCC[C@H]1c1cc(O)c2c(c1C(F)(F)F)C[C@H]1C[C@H]3[C@H](N(C)C)C(O)=C(C(N)=O)C(=O)[C@@]3(O)C(O)=C1C2=O` has what recorded log10 of MIC?
0.30

Item `CN(C)[C@@H]1C(O)=C(C(N)=O)C(=O)[C@@]2(O)C(O)=C3C(=O)c4c(O)cc([C@@H]5CCCN5)c(C(F)(F)F)c4C[C@H]3C[C@@H]12` has what recorded log10 of MIC?
0.60

* * *

Tested on: Enterococcus faecalis
Experiment: Antibacterial activity against gram-positive Enterococcus faecalis EFs327 harboring tet(M) by CLSI method
Assay type: functional
Measured parameter: MIC

As a guide, the following entries are already answered.
{"columns": ["Molecule", "Subject of test", "MIC"],
 "data": [
  ["CN(C)[C@@H]1C(O)=C(C(N)=O)C(=O)[C@@]2(O)C(O)=C3C(=O)c4c(O)cc([C@@H]5CCCN5CC5CC5)c(C(F)(F)F)c4C[C@H]3C[C@@H]12", "Enterococcus faecalis", "1 µg/mL"],
  ["CN(C)[C@@H]1C(O)=C(C(N)=O)C(=O)[C@@]2(O)C(O)=C3C(=O)c4c(O)cc([C@@H]5CCCN5)c(C(F)(F)F)c4C[C@H]3C[C@@H]12", "Enterococcus faecalis", "1 µg/mL"]
]}

Moving on to the next molecule.
Item CC1CCN(C)C1c1cc(O)c2c(c1C(F)(F)F)C[C@H]1C[C@H]3[C@H](N(C)C)C(O)=C(C(N)=O)C(=O)[C@@]3(O)C(O)=C1C2=O (stereo partly drawn) has what recorded MIC?
4 µg/mL

* * *

MIC by entry:
Tested on: Proteus mirabilis
Assay: Antibacterial activity against gram-negative Proteus mirabilis PM385 by CLSI method
Type: functional
Answer format: numeric, µg/mL implied, no suffix.

{"columns": ["Compound", "Measured parameter", "Readout number"],
 "data": [
  ["CN(C)[C@@H]1C(O)=C(C(N)=O)C(=O)[C@@]2(O)C(O)=C3C(=O)c4c(O)cc(C5CCCN5)c(OC(F)(F)F)c4C[C@H]3C[C@@H]12 (some centres not stated)", "MIC", 1],
  ["CCCN1CCC[C@H]1c1cc(O)c2c(c1C(F)(F)F)C[C@H]1C[C@H]3[C@H](N(C)C)C(O)=C(C(N)=O)C(=O)[C@@]3(O)C(O)=C1C2=O", "MIC", 8],
  ["CC(C)N1CCC[C@H]1c1cc(O)c2c(c1C(F)(F)F)C[C@H]1C[C@H]3[C@H](N(C)C)C(O)=C(C(N)=O)C(=O)[C@@]3(O)C(O)=C1C2=O", "MIC", 4],
  ["CN(C)[C@@H]1C(O)=C(C(N)=O)C(=O)[C@@]2(O)C(O)=C3C(=O)c4c(O)cc([C@@H]5CCCN5)cc4C[C@H]3C[C@@H]12", "MIC", 0.25],
  ["CN(C)c1cc(NC(=O)CNC(C)(C)C)c(O)c2c1C[C@H]1C[C@H]3[C@H](N(C)C)C(O)=C(C(N)=O)C(=O)[C@@]3(O)C(O)=C1C2=O [TIGECYCLINE]", "MIC", 4]
]}

Kindly state the measured MIC obtained for CC1CCC(c2cc(O)c3c(c2C(F)(F)F)C[C@H]2C[C@H]4[C@H](N(C)C)C(O)=C(C(N)=O)C(=O)[C@@]4(O)C(O)=C2C3=O)N1 (some centres not stated) with Proteus mirabilis.
0.5

Kindly state the measured MIC obtained for CC1CCN(C)C1c1cc(O)c2c(c1C(F)(F)F)C[C@H]1C[C@H]3[C@H](N(C)C)C(O)=C(C(N)=O)C(=O)[C@@]3(O)C(O)=C1C2=O (some centres not stated) with Proteus mirabilis.
8

Kindly state the measured MIC obtained for CC1CCC(c2cc(O)c3c(c2C(F)(F)F)C[C@H]2C[C@H]4[C@H](N(C)C)C(O)=C(C(N)=O)C(=O)[C@@]4(O)C(O)=C2C3=O)N1C (some centres not stated) with Proteus mirabilis.
4

Kindly state the measured MIC obtained for COc1c(C2CCCN2)cc(O)c2c1C[C@H]1C[C@H]3[C@H](N(C)C)C(O)=C(C(N)=O)C(=O)[C@@]3(O)C(O)=C1C2=O (some centres not stated) with Proteus mirabilis.
4

Kindly state the measured MIC obtained for `CN(C)[C@@H]1C(O)=C(C(N)=O)C(=O)[C@@]2(O)C(O)=C3C(=O)c4c(O)cc([C@@H]5CCCN5)c(F)c4C[C@H]3C[C@@H]12` with Proteus mirabilis.
0.25

Kindly state the measured MIC obtained for `CN(C)[C@@H]1C(O)=C(C(N)=O)C(=O)[C@@]2(O)C(O)=C3C(=O)c4c(O)cc([C@@H]5CCCN5CC5CC5)c(C(F)(F)F)c4C[C@H]3C[C@@H]12` with Proteus mirabilis.
8

Kindly state the measured MIC obtained for `CN(C)[C@@H]1C(O)=C(C(N)=O)C(=O)[C@@]2(O)C(O)=C3C(=O)c4c(O)cc([C@@H]5CCCN5)c(C(F)(F)F)c4C[C@H]3C[C@@H]12` with Proteus mirabilis.
0.5
